Tested on: primary human chondrocyte pellet cultures
MEASUREMENT_NOTES: Chondrogenesis activity assay in primary human chondrocyte pellet cultures (proteoglycan (aggrecan) induction, Blyscan assay)
Format: cell-based
REPORTED_CONDITIONS: Homo sapiens, Chondrocyte; maximum percent proteoglycan (aggrecan) induction relative to the internal reference compound at 10 μM
The following molecules are listed with their measured Emax values.

Completed entries (count: 2):
| MOLECULE | Emax |
| --- | --- |
| Cc1nccc2c1[nH]c1c(-c3ccc(C(=O)NCCN(C)C)cc3)cc(Cl)cc12 | 40 to 100% |
| Cc1nccc2c1[nH]c1c(-c3ccc(OCc4nccn4C)cc3)cc(Cl)cc12 | > 200% |

Dear colleague, I am looking for the recorded Emax of the following molecule: COc1cc(-c2cc(Cl)cc3c2[nH]c2c(C)nccc23)ccc1OCc1cccc(F)n1
< 40%

Dear colleague, I am looking for the recorded Emax of the following molecule: FC(F)(F)Cn1c2cnccc2c2cc(Cl)cc(-c3cnn(-c4c(Cl)cccc4Cl)c3)c21
< 40%

Dear colleague, I am looking for the recorded Emax of the following molecule: COc1ccc(-c2cc(Cl)cc3c2[nH]c2c(C)nccc23)cc1Cl
< 40%

Dear colleague, I am looking for the recorded Emax of the following molecule: CCn1c2c(-c3cnn(Cc4cccnc4)c3)cc(Cl)cc2c2ccnc(C)c21
100 to 200%

Dear colleague, I am looking for the recorded Emax of the following molecule: Cc1nccc2c1[nH]c1c(-c3c[nH]nc3Cc3ccccc3)cc(Cl)cc12
< 40%

Dear colleague, I am looking for the recorded Emax of the following molecule: Cc1nccc2c1[nH]c1c(-c3cccc(Oc4ncc(Br)cn4)c3)cc(Cl)cc12
100 to 200%

Dear colleague, I am looking for the recorded Emax of the following molecule: Cc1nccc2c1[nH]c1c(-c3ccnc(F)c3Br)cc(Cl)cc12
40 to 100%
